- Tested on: NCI-H2170 (Squamous Cell Lung Carcinoma);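 also: after 72 h of two-drug dosing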
- assayText: Bliss excess, mean over the matrix (fraction); higher = more synergy
compounds and their reported Bliss excess
I'd appreciate a reply containing only the number, no unit.

Sample records with Bliss excess:
compound="Cc1c2c(nn1C)CSCc1cc(n(C)n1)CSc1cc(c3ccccc3c1)OCCCc1c(C(=O)O)n(C)c3c-2c(Cl)ccc13 [AZD5991] + Cc1cc2ncnn2cc1Nc1ncc2c(n1)n(C1CCOCC1)c(=O)n2C [AZD7648] (first compound max 1 µM, 7x7, partner max 10 µM)" measurementtarget="NCI-H2170 (Squamous Cell Lung Carcinoma)" measured=-0.0144
compound="CN(CCO)CC[C@H](CSc1ccccc1)Nc1ccc(S(=O)(=O)NC(=O)c2ccc(N3CCC([C@@H](O)c4ccccc4-c4ccc(Cl)cc4)CC3)cc2)cc1S(=O)(=O)C(F)(F)F [AZD4320] + C[C@@H](Nc1cc(F)cc(F)c1)c1cc(C(=O)N(C)C)cc2c(=O)cc(N3CCOCC3)oc12 [AZD8186] (first compound max 1 µM, 7x7, partner max 3 µM)" measurementtarget="NCI-H2170 (Squamous Cell Lung Carcinoma)" measured=0.0284

What the record says about CC1(C)CCC(CN2CCN(c3ccc(C(=O)NS(=O)(=O)c4ccc(NCC5CCOCC5)c([N+](=O)[O-])c4)c(Oc4cnc5[nH]ccc5c4)c3)CC2)=C(c2ccc(Cl)cc2)C1 [Venetoclax] + C=CCn1c(=O)c2cnc(Nc3ccc(N4CCN(C)CC4)cc3)nc2n1-c1cccc(C(C)(C)O)n1 [AZD1775] (first compound max 1 µM, partner max 1 µM) : Bliss excess is -0.0548
